system_tested: glucosylceramide synthase (GCS) (Homo sapiens (Human))
Sequence (Q16739 whole entry, looked up): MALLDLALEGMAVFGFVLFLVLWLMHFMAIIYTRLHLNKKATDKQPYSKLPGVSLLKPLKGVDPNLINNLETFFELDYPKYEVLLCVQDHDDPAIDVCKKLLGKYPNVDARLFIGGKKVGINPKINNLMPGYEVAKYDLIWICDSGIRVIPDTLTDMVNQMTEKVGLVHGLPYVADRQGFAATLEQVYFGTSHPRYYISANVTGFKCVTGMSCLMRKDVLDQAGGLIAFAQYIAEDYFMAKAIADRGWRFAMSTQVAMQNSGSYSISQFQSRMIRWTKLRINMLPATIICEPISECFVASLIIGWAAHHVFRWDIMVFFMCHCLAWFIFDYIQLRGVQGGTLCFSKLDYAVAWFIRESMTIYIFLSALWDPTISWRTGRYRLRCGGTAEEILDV
assay_name: Evaluation of inhibitory activities against GCS (enzyme reaction with A549 cell lysate, NBD C6-ceramide, HPLC fluorescence)
test_conditions: GCS activity in A549 cell lysate, 37° C. for 90 minutes
observed_property: IC50 (nM)
I only need the number, in nM, no unit after it.

Answered cases to consult:
| molecule | observed_property | unit_label | experimental_value |
| --- | --- | --- | --- |
| O=C(NC1CCCc2ccc(-c3ccccc3Cl)cc21)O[C@@H]1CN2CCC1CC2 (some centres unmarked) [Example 62] | IC50 | nM | 7.37 |
| CCCOc1c(C)cc(-c2cc3c(cc2F)C(NC(=O)O[C@@H]2CN4CCC2CC4)C(C)(C)CC3)cc1C (some centres unmarked) [Example 228] | IC50 | nM | 1.34 |
| O=C(NC1c2ccc(-c3cccc(F)c3)cc2CCC12CC2)O[C@@H]1CN2CCC1CC2 (some centres unmarked) [Example 190] | IC50 | nM | 11.9 |
| COCOc1ccccc1-c1ccc2c(c1)CCC1(CC1)C2NC(=O)O[C@@H]1CN2CCC1CC2 (some centres unmarked) [Example 199] | IC50 | nM | 7.24 |

Look up IC50: O=C(NC1c2ccc(-c3ccc(OC(F)(F)F)cc3)cc2CCC12CC2)O[C@@H]1CN2CCC1CC2 (some centres unmarked) [Example 189]
18.9

IC50 for CCCOc1ccc(-c2ccc3c(c2)CCC(C)(C)C3NC(=O)O[C@@H]2CN3CCC2CC3)cc1F (some centres unmarked) [Example 145] ?
0.87

Fill blank: measured IC50 of the molecule CC(C)c1cccc(-c2ccc3c(c2)CCCC3NC(=O)O[C@@H]2CN3CCC2CC3)c1 (some centres unmarked) [Example 40] is ____.
1.77

Fill in: IC50 of O=C(NC1CCCc2cc(-c3ccc(N4CCOCC4)cc3)ccc21)O[C@@H]1CN2CCC1CC2 (some centres unmarked) [Example 45] is ___
21.3

###

system_tested: glucosylceramide synthase (GCS) (Homo sapiens (Human))
assay_name: Evaluation of inhibitory activities against GCS (enzyme reaction with A549 cell lysate, NBD C6-ceramide, HPLC fluorescence)
test_conditions: GCS activity in A549 cell lysate, 37° C. for 90 minutes
The following compounds are shown together with reported pIC50 values.
# pIC50 = -log10(concentration in molar units)

# example entries with known answers
| compound | system_tested | pIC50 |
| --- | --- | --- |
| CCOc1cccc(-c2ccc3c(c2)CCC(C)(C)C3NC(=O)O[C@@H]2CN3CCC2CC3)c1 (stereo partly drawn) | glucosylceramide synthase (GCS) (Homo sapiens (Human)) | 8.47 |
| CC(C)Oc1ccccc1-c1ccc2c(c1)C(NC(=O)O[C@@H]1CN3CCC1CC3)CCC2 (stereo partly drawn) | glucosylceramide synthase (GCS) (Homo sapiens (Human)) | 7.52 |
| CC(C)c1cccc(-c2ccc3c(c2)CCC2(CC2)C3NC(=O)O[C@@H]2CN3CCC2CC3)c1 (stereo partly drawn) | glucosylceramide synthase (GCS) (Homo sapiens (Human)) | 7.47 |
| O=C(NC1CCCc2ccc(-c3ccc(F)cc3F)cc21)O[C@@H]1CN2CCC1CC2 (stereo partly drawn) | glucosylceramide synthase (GCS) (Homo sapiens (Human)) | 7.85 |
| O=C(NC1CCCc2cc(-c3cc(F)c(F)cc3F)ccc21)O[C@@H]1CN2CCC1CC2 (stereo partly drawn) | glucosylceramide synthase (GCS) (Homo sapiens (Human)) | 8.60 |

For the compound CC1(C)CCc2ccc(-c3ccccc3C(F)(F)F)cc2C1NC(=O)O[C@@H]1CN2CCC1CC2 (stereo partly drawn) , what pIC50 is on record?
7.58

If you can, please state the reported pIC50 value of CC1(C)CCc2cc(-c3ccc(Cl)c(Cl)c3)ccc2C1NC(=O)O[C@@H]1CN2CCC1CC2 (stereo partly drawn) .
8.39

Bench note: what pIC50 did CCc1ccc(-c2ccc3c(c2)CCCC3NC(=O)O[C@@H]2CN3CCC2CC3)cc1 (stereo partly drawn) show?
8.18

For the compound O=C(NC1CCCc2cc(-c3ccc(C4CC4)cc3)ccc21)O[C@H]1CN2CCC1CC2 (stereo partly drawn) , what pIC50 is on record?
8.29
